The reported measurements were obtained from paper PMC2860993.

Tested on: recombinant luciferase-expressing CMV (Towne)
Test: microbe, parasite or virus in culture
Assay type: cell-based, human CMV
Conditions: Human betaherpesvirus 5, read-out: EC50 (µM) - CMV
assay-endpoint: EC50 (µM)
Please state the figure in µM; there is no need to write the unit.

Take a look at these entries with their results.
molecule: CO[C@H]1O[C@@H]2O[C@@]3(C)CC[C@H]4[C@H](C)CC[C@@H]([C@H]1C)[C@@]24OO3
assay-endpoint: EC50
endpoint-unit: µM
test-result: 5.1
//
molecule: C[C@@H]1CC[C@H]2[C@@H](C)C(=O)O[C@@H]3O[C@@]4(C)CC[C@@H]1[C@]32OO4
assay-endpoint: EC50
endpoint-unit: µM
test-result: 15.7

For the record C[C@H]1[C@H](OC(=O)CCC(=O)O)O[C@@H]2O[C@@]3(C)CC[C@H]4[C@H](C)CC[C@@H]1[C@@]24OO3 [Artesunate (2d), artesunate] , what value of EC50 is listed for recombinant luciferase-expressing CMV (Towne)?
17.2

Field: EC50 (recombinant luciferase-expressing CMV (Towne)). Entry: C[C@H]1[C@@H](CC(CO)C[C@H]2O[C@@H]3O[C@@]4(C)CC[C@H]5[C@H](C)CC[C@@H]([C@H]2C)[C@@]35OO4)O[C@@H]2O[C@@]3(C)CC[C@H]4[C@H](C)CC[C@@H]1[C@@]24OO3 (stereo partly shown)
0.16

----------
pEC50 by entry:
Test system: recombinant luciferase-expressing CMV (Towne)
Assay: microbe, parasite or virus in culture
Assay type: cell-based, human CMV
Conditions: Human betaherpesvirus 5, 72 h
Experimental: Human Foreskin Fibroblasts (HFF) passage 12–16 and human lung fibroblasts (HEL) passage 8–12 (from ATCC) were maintained in DMEM containing 10% fetal bovine serum and used for infections with the viruses. […] Towne-GFP, Towne–luciferase, and SB viruses were used in these assays. […] The concentration of each compound was calculated and adjusted by volume such that it was constant throughout the experiment. […]
# log scale: pEC50 equals minus log10 of the concentration in mol/L

molecule: Nc1nc(O)c2ncn(COC(CO)CO)c2n1 [GCV, Ganciclovir]
pEC50: 5.25
//
molecule: C[C@@H]1CC[C@H]2[C@@H](C)C(=O)O[C@@H]3O[C@@]4(C)CC[C@@H]1[C@]32OO4 [Artemisinin (1), artemisinin]
pEC50: 4.77
//
molecule: CO[C@H]1O[C@@H]2O[C@@]3(C)CC[C@H]4[C@H](C)CC[C@@H]([C@H]1C)[C@@]24OO3 [Artemether (2c), artemether]
pEC50: 5.28

Test system recombinant luciferase-expressing CMV (Towne); read-out pEC50; what value for C[C@H]1[C@H](OC(=O)CCC(=O)O)O[C@@H]2O[C@@]3(C)CC[C@H]4[C@H](C)CC[C@@H]1[C@@]24OO3 [Artesunate (2d), artesunate] ?
4.73

Item C[C@H]1[C@@H](CCC(=O)Nc2ccc(F)cc2)O[C@@H]2O[C@@]3(C)CC[C@H]4[C@H](C)CC[C@@H]1[C@@]24OO3 [Artefanilide (3), artefanilide] with recombinant luciferase-expressing CMV (Towne) - pEC50?
5.09

Given the entry C[C@H]1[C@@H](CC(C[C@H]2O[C@@H]3O[C@@]4(C)CC[C@H]5[C@H](C)CC[C@@H]([C@H]2C)[C@@]35OO4)CS(=O)(=O)c2ccc(COC(=O)N(C)C)cc2)O[C@@H]2O[C@@]3(C)CC[C@H]4[C@H](C)CC[C@@H]1[C@@]24OO3 (stereo partly shown) [Dimer sulfone carbamate (6), dimer sulfone dimethyl carbamate] , what pEC50 was observed with recombinant luciferase-expressing CMV (Towne)?
7.22

Request: pEC50, test system recombinant luciferase-expressing CMV (Towne), entry C[C@H]1[C@@H](CC(CO)C[C@H]2O[C@@H]3O[C@@]4(C)CC[C@H]5[C@H](C)CC[C@@H]([C@H]2C)[C@@]35OO4)O[C@@H]2O[C@@]3(C)CC[C@H]4[C@H](C)CC[C@@H]1[C@@]24OO3 (stereo partly shown) [Dimer primary alcohol (4), dimer primary alcohol]
6.82

----------
Below, each entry is listed alongside its reported Selectivity index (SI).
System: recombinant luciferase-expressing CMV (Towne)
Test: microbe, parasite or virus in culture
Format: cell-based, human CMV
Settings: ratio between CC50 and EC50

Some solved cases for reference:
compound: C[C@H]1[C@@H](CC(C[C@H]2O[C@@H]3O[C@@]4(C)CC[C@H]5[C@H](C)CC[C@@H]([C@H]2C)[C@@]35OO4)CS(=O)(=O)c2ccc(COC(=O)N(C)C)cc2)O[C@@H]2O[C@@]3(C)CC[C@H]4[C@H](C)CC[C@@H]1[C@@]24OO3 (some centres unmarked) [Dimer sulfone carbamate (6), dimer sulfone dimethyl carbamate]
Selectivity index (SI): 508±173
//
compound: C[C@H]1[C@H](OC(=O)CCC(=O)O)O[C@@H]2O[C@@]3(C)CC[C@H]4[C@H](C)CC[C@@H]1[C@@]24OO3 [Artesunate (2d), artesunate]
Selectivity index (SI): 4.2±2.2
//
compound: C[C@H]1[C@@H](CC(CO)C[C@H]2O[C@@H]3O[C@@]4(C)CC[C@H]5[C@H](C)CC[C@@H]([C@H]2C)[C@@]35OO4)O[C@@H]2O[C@@]3(C)CC[C@H]4[C@H](C)CC[C@@H]1[C@@]24OO3 (some centres unmarked)
Selectivity index (SI): 380±53
//
compound: C[C@H]1[C@@H](CCC(=O)Nc2ccc(F)cc2)O[C@@H]2O[C@@]3(C)CC[C@H]4[C@H](C)CC[C@@H]1[C@@]24OO3 [Artefanilide (3), artefanilide]
Selectivity index (SI): 5.5±1.6

Next compound, please.
Name the recorded Selectivity index (SI) for CO[C@H]1O[C@@H]2O[C@@]3(C)CC[C@H]4[C@H](C)CC[C@@H]([C@H]1C)[C@@]24OO3 .
3.5±2.2

----------
Assay: Cellular cytotoxicity, CellTiter-Glo Luminescent Cell Viability Assay
Type: cell-based
Settings: human
assay-endpoint: CC50

Please review the following examples before continuing.
compound: C[C@H]1[C@@H](CCC(=O)Nc2ccc(F)cc2)O[C@@H]2O[C@@]3(C)CC[C@H]4[C@H](C)CC[C@@H]1[C@@]24OO3 [Artefanilide (3), artefanilide]
CC50: 44.9 µM
--
compound: C[C@H]1[C@@H](CC(C[C@H]2O[C@@H]3O[C@@]4(C)CC[C@H]5[C@H](C)CC[C@@H]([C@H]2C)[C@@]35OO4)CS(=O)(=O)c2ccc(COC(=O)N(C)C)cc2)O[C@@H]2O[C@@]3(C)CC[C@H]4[C@H](C)CC[C@@H]1[C@@]24OO3 (stereo partly shown) [Dimer sulfone carbamate (6), dimer sulfone dimethyl carbamate]
CC50: 28.1 µM
--
compound: C[C@H]1[C@@H](CC(CO)C[C@H]2O[C@@H]3O[C@@]4(C)CC[C@H]5[C@H](C)CC[C@@H]([C@H]2C)[C@@]35OO4)O[C@@H]2O[C@@]3(C)CC[C@H]4[C@H](C)CC[C@@H]1[C@@]24OO3 (stereo partly shown)
CC50: 57 µM

For the compound shown here, CO[C@H]1O[C@@H]2O[C@@]3(C)CC[C@H]4[C@H](C)CC[C@@H]([C@H]1C)[C@@]24OO3 , give the reported CC50.
18.4 µM
